Reference for the values: paper PMC10786891

Recorded log10 of Kd, one value per entry.
TESTED_ON: T1, EsCas13d, nuclease-dead (Eubacterium siraeum, UniProt B0MS50, R295A;H300A;R849A;H854A)
T1 sequence: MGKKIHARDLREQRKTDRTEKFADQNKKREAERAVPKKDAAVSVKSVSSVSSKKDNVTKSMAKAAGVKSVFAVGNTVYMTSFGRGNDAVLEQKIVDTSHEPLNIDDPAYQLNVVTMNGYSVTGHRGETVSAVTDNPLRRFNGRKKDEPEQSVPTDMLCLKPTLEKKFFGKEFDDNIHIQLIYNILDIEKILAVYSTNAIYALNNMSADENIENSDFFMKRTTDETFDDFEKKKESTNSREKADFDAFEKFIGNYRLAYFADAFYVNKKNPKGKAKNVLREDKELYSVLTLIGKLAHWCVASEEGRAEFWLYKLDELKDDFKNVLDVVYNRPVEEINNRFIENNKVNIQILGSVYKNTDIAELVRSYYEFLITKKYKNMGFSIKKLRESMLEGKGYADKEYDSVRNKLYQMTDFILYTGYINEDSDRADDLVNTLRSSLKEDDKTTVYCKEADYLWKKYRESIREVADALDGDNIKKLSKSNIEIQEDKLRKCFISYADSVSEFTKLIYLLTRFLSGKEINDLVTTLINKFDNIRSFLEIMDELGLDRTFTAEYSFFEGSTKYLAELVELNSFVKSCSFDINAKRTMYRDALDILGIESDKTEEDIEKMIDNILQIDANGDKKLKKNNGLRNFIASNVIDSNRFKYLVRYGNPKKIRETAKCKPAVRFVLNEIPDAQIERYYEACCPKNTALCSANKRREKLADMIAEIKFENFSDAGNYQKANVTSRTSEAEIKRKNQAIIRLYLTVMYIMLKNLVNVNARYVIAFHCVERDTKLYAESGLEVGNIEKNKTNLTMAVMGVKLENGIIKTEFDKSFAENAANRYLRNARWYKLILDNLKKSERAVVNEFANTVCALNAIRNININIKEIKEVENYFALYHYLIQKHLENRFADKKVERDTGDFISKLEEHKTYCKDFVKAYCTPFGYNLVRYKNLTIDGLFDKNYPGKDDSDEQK
EXPERIMENT_NOTES: crRNA (strand 1, pre-loaded); Mg2+; 40 mM Tris-HCl pH 7.5, 150 mM NaCl, 6 mM MgCl2, 1 mM DTT, 0.1% Tween-20, 0.2 mg/ml BSA; 25 C; 10 min per concentration, then washed
TEST_PARAMETERS: tags: His6-TwinStrep-SUMO cleaved; N-terminal SNAP kept (SNAP-Surface 488); label: 3' end held by stalled T7 RNA polymerase
Recorded Kd (log10, nM)

Worked cases, log10 of Kd given:
target 2 MT 5'PFS AGC 3'PFS UCA (mixed) RNA 1: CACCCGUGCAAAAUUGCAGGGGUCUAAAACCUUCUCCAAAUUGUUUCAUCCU RNA 2: GGGAAUGGAUCCACAUCUACGAAUUCAGCAGGAUGAAACAAUUUGGAGAAGUCAAGAUCGGAAGAGCACACGU	1.43
target 2 MT 5'PFS GUG 3'PFS CAG (mixed) RNA 1: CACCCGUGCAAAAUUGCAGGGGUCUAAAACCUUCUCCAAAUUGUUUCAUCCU RNA 2: GGGAAUGGAUCCACAUCUACGAAUUCGUGAGGAUGAAACAAUUUGGAGAAGCAGAGAUCGGAAGAGCACACGU	1.02

Prompt line: Form field: reported log10 of Kd of target 2 MT 5'PFS GGA 3'PFS CAU (mixed) RNA 1: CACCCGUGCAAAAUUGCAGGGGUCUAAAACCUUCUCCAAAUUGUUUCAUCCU RNA 2: GGGAAUGGAUCCACAUCUACGAAUUCGGAAGGAUGAAACAAUUUGGAGAAGCAUAGAUCGGAAGAGCACACGU
Response line: 0.96

Prompt line: Using the record for target 3 insA 3' of 7,insG 3' of 2 (mixed) RNA 1: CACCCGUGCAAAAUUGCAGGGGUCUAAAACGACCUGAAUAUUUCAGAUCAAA RNA 2: GGGAAUGGAUCCACAUCUACGAAUUCGUUUUUGAUCUGAAAUAUUACAGGUGCUGCAGAUCGGAAGAGCACACGU , report its log10 of Kd.
Response line: 1.45

Prompt line: What log10 of Kd value was documented for this binder, target 1 del2,del14 (mixed) RNA 1: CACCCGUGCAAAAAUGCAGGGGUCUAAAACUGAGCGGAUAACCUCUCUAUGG RNA 2: GGGAAUGGAUCCACAUCUACGAAUUCGUACCAUAGAGGGUUAUCCGCUACCGAGAUCGGAAGAGCACACGU ?
Response line: 1.81

Prompt line: # log10 of Kd lookup, item target 1 MT 5'PFS UAC 3'PFS ACU (mixed) RNA 1: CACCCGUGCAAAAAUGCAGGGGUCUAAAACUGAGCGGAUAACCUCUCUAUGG RNA 2: GGGAAUGGAUCCACAUCUACGAAUUCUACCCAUAGAGAGGUUAUCCGCUCAACUAGAUCGGAAGAGCACACGU
Response line: 1.05
